Cited source: the supplement of paper PMC13380429

- Test system: Vero E6 infected with SARS-CoV-2
- ASSAY_NAME: SARS-CoV-2 infection rate relative to infected DMSO; higher = more infection, active = 60 or less
- MEASUREMENT_CONDITIONS: 24 h
Assign SARS-CoV-2 infection rate to each entry below.
Answers are plain numbers, in %.

Here are 3 compounds. What values of SARS-CoV-2 infection rate were reported for them?
1. CN1C(=O)c2c(nn(Cc3ccc(-c4cccc(F)n4)cc3)c2Nc2ccccc2)N2C1=N[C@@H]1CCC[C@@H]12 (10 µM)
2. CC[N+](CC)(CC)CCC(O)(c1ccccc1)C1CCCCC1 (stereo not drawn) [tridihexethyl] (10 µM)
3. CC1(C)CC[C@]2(C(=O)O)CC[C@]3(C)[C@H](C(=O)C=C4[C@@]5(C)C=C(C#N)C(=O)C(C)(C)[C@@H]5CC[C@]43C)[C@@H]2C1 [bardoxolone] (0.833333 µM)

Given back:
105
110
104
